- Study System: Probable G-protein coupled receptor 27 (Homo sapiens, UniProt Q9NS67)
- Sequence (Q9NS67 whole entry): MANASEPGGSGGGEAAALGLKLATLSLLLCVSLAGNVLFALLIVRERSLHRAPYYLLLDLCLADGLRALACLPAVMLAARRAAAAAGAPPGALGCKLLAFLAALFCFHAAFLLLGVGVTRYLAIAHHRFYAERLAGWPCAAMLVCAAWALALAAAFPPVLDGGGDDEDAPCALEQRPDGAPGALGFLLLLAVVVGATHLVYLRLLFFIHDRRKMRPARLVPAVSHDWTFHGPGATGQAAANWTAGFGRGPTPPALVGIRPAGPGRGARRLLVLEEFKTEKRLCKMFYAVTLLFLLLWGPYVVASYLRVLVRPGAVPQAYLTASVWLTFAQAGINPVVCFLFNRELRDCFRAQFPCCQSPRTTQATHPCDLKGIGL
- Method Description: Agonist activity at human GPR27 expressed in HEK293 cells co-expressing FnLArrb2.GPR27V2LFc assessed as induction of beta-arrestin recruitment incubated for 10 mins measured followed by addition of D-luciferin by firefly-luciferase complementation assay
- Assay type: functional, cell-based
pEC50: −log10 of the molar value.
If the reported pEC50 equals or exceeds 6, assign fulfilled. If not, assign not fulfilled.

Q: Determine whether measured pEC50 meets or exceeds 6 for `O=C(Nc1ccc(Cl)cc1Cl)c1ccc(S(=O)(=O)Nc2ccccc2)cc1`
Ans: not fulfilled

Q: Now this one: `O=C(Nc1ccc(S(=O)(=O)Nc2ccccc2)cc1)c1cc2ccccc2oc1=O`
Ans: not fulfilled

Q: Now this one: `O=S(=O)(Nc1ccccc1)c1ccc(NS(=O)(=O)c2ccc(Cl)cc2Cl)cc1`
Ans: not fulfilled

Q: Now this one: `O=C(Nc1ccc(S(=O)(=O)Nc2cccc(Cl)c2)cc1)c1ccc(Cl)cc1Cl`
Ans: fulfilled

Q: Now this one: `O=C(Nc1ccc(S(=O)(=O)Nc2ccccc2)cc1)c1ccc2ccccc2c1`
Ans: not fulfilled

---

- Study System: Probable G-protein coupled receptor 27 (Homo sapiens, UniProt Q9NS67)
- Method Description: Agonist activity at human GPR27 expressed in HEK293 cells assessed as induction of beta-arrestin recruitment pretreated with substrate for 45 mins followed by compound addition and measured for 40 mins by NanoLuc luciferase complementation assay
- Assay type: functional, cell-based
Recorded pEC50 by entry
Lab note: report pEC50 as minus log10 of the concentration in molar units, number only.

[
  {
    "Input Smiles": "O=C(Nc1ccc(S(=O)(=O)Nc2nccs2)cc1)c1ccc(Cl)cc1Cl",
    "pEC50": 5.89
  }
]

# evaluate next
Q: Item `O=C(Nc1ccc(S(=O)(=O)Nc2ccccc2)cc1)c1ccc(Cl)cc1Cl` has what recorded pEC50?
Ans: 6.04

---

Recorded EC50 by entry
- Study System: Probable G-protein coupled receptor 27 (Homo sapiens)
- Method Description: Agonist activity at human GPR27 expressed in HEK293 cells co-expressing FnLArrb2.GPR27V2LFc assessed as induction of beta-arrestin recruitment incubated for 10 mins measured followed by addition of D-luciferin by firefly-luciferase complementation assay
- Format: functional, cell-based
Report the value in nM with no unit label.

[
  {
    "Input Smiles": "O=C(Nc1ccc(S(=O)(=O)Nc2ccccc2)cc1)c1ccc(Cl)cc1Br",
    "EC50 (nM)": 1020
  },
  {
    "Input Smiles": "O=C(Nc1ccc(S(=O)(=O)Nc2ccccc2)cc1)c1ccc(Cl)cc1F",
    "EC50 (nM)": 3980
  },
  {
    "Input Smiles": "Cc1cc(Cl)ccc1C(=O)Nc1ccc(S(=O)(=O)Nc2ccccc2)cc1",
    "EC50 (nM)": 912
  },
  {
    "Input Smiles": "N#Cc1ccc(C(=O)Nc2ccc(S(=O)(=O)Nc3ccccc3)cc2)c(F)c1",
    "EC50 (nM)": 229
  }
]

Q: Lookup: EC50 / Probable G-protein coupled receptor 27 (Homo sapiens) / `O=C(Nc1ccc(S(=O)(=O)Nc2ccccc2)cc1)c1ccc(Cl)cc1Cl`
Ans: 457

Q: Now this one: `O=C(Nc1ccc(S(=O)(=O)Nc2ccccc2)cc1)c1cc(F)c(Cl)cc1F`
Ans: 141

Q: Now this one: `Cc1ccccc1NS(=O)(=O)c1ccc(NC(=O)c2ccc(Cl)cc2Cl)cc1`
Ans: 1230

---

- Study System: Probable G-protein coupled receptor 27 (Homo sapiens, UniProt Q9NS67)
- Method Description: Agonist activity at human GPR27 expressed in HEK293 cells co-expressing FnLArrb2.GPR27V2LFc assessed as induction of beta-arrestin recruitment incubated for 10 mins measured followed by addition of D-luciferin by firefly-luciferase complementation assay
- Format: functional, cell-based
Readout Label: EC50 (nM)
Report the value in nM with no unit label.

Below: 3 compounds and their reported EC50.
[
  {
    "Input Smiles": "O=C(Nc1ccc(S(=O)(=O)Nc2ccccc2Cl)cc1)c1ccc(Cl)cc1Cl",
    "EC50 (nM)": 1260
  },
  {
    "Input Smiles": "Cc1cc(Br)ccc1C(=O)Nc1ccc(S(=O)(=O)Nc2ccccc2)cc1",
    "EC50 (nM)": 851
  },
  {
    "Input Smiles": "COc1cc(Br)ccc1C(=O)Nc1ccc(S(=O)(=O)Nc2ccccc2)cc1",
    "EC50 (nM)": 1020
  }
]

# evaluate next
Q: Item `O=C(Nc1ccc(S(=O)(=O)Nc2ccccc2)cc1)c1ccc(C(F)(F)F)cc1F` has what recorded EC50?
Ans: 363

---

- Study System: Probable G-protein coupled receptor 27 (Homo sapiens, UniProt Q9NS67)
- Method Description: Agonist activity at human GPR27 expressed in HEK293 cells co-expressing FnLArrb2.GPR27V2LFc assessed as induction of beta-arrestin recruitment incubated for 10 mins measured followed by addition of D-luciferin by firefly-luciferase complementation assay
- Format: functional, cell-based
pEC50: −log10 of the molar value.
Readout Label: pEC50

Below: 2 molecules and their reported pEC50.
[
  {
    "Input Smiles": "O=C(Nc1ccccc1)c1ccc(NC(=O)c2ccc(Cl)cc2Cl)cc1",
    "Study System": "Probable G-protein coupled receptor 27 (Homo sapiens, UniProt Q9NS67)",
    "Measured Result": "< 5.00"
  },
  {
    "Input Smiles": "O=C(Nc1ccc(S(=O)(=O)Nc2ccc(Cl)cc2)cc1)c1ccc(Cl)cc1Cl",
    "Study System": "Probable G-protein coupled receptor 27 (Homo sapiens, UniProt Q9NS67)",
    "Measured Result": "< 4.00"
  }
]

# evaluate next
Q: Item `Cc1ccc(NS(=O)(=O)c2ccc(NC(=O)c3ccc(Cl)cc3Cl)cc2)cc1` has what recorded pEC50?
Ans: < 4.00

---

- Study System: Probable G-protein coupled receptor 27 (Homo sapiens, UniProt Q9NS67)
- Method Description: Agonist activity at human GPR27 expressed in HEK293 cells co-expressing FnLArrb2.GPR27V2LFc assessed as induction of beta-arrestin recruitment incubated for 10 mins measured followed by addition of D-luciferin by firefly-luciferase complementation assay
- Format: functional, cell-based
Recorded log10 of EC50 by entry
Recall that a logarithmic scale is used here: each number is log10 of EC50 in µM.

Below: 3 compounds and their reported log10 of EC50.
[
  {
    "Input Smiles": "CN(c1ccccc1)S(=O)(=O)c1ccc(NC(=O)c2ccc(Cl)cc2Cl)cc1",
    "Study System": "Probable G-protein coupled receptor 27 (Homo sapiens, UniProt Q9NS67)",
    "log10 of EC50": 0.41
  },
  {
    "Input Smiles": "O=C(Nc1ccc(S(=O)(=O)Nc2ccccc2)cc1)c1ncc(Cl)cc1Cl",
    "Study System": "Probable G-protein coupled receptor 27 (Homo sapiens, UniProt Q9NS67)",
    "log10 of EC50": 0.76
  },
  {
    "Input Smiles": "O=C(Nc1ccc(S(=O)(=O)Nc2ccccn2)cc1)c1ccc(Cl)cc1Cl",
    "Study System": "Probable G-protein coupled receptor 27 (Homo sapiens, UniProt Q9NS67)",
    "log10 of EC50": 0.48
  }
]

Q: Item `O=C(Nc1ccc(S(=O)(=O)Nc2ccccc2)cc1)c1ccc(Cl)nc1F` has what recorded log10 of EC50?
Ans: 0.36

Q: Now this one: `O=C(Nc1ccc(S(=O)(=O)Nc2ccccc2)cc1)c1ccc(Br)cc1F`
Ans: -0.32

Q: Now this one: `O=C(Nc1ccc(S(=O)(=O)Nc2ccccc2)cc1)c1ccc(I)cc1F`
Ans: 0.71
